System: L1210 leukemia ip in BDF1 mice, survival T/C
Test: NCI In Vivo Anticancer Drug Screen. Data for tumor model L1210 Leukemia (intraperitoneal) in B6D2F1 (BDF1) mice
Settings: endpoint: mean survival time; dose: 400.0 mg/kg/injection; schedule: Q01DX009 (ip); vehicle: Klucel (hydroxypropylcellulose) (HPC); higher = longer survival
Toxic doses and inconclusive results are not listed.
Kindly supply the reported T/C values for the records listed here.

NNS(=O)(=O)c1ccc(OCC(=O)O)cc1 | 94 % of control
COc1ccc2c(c1)c(=O)c(C(=O)O)cn2CCCOc1ccc([N+](=O)[O-])cc1 | 93 % of control
CN(C)C(=S)Oc1ccc([N+](=O)[O-])cc1Cl | 100 % of control
Cc1ccc([N+](=O)[O-])cc1NC(=O)Nc1nccs1 | 102 % of control
COc1ccc(Cl)cc1NC(=O)c1ccccc1Cl | 101 % of control
CCCCCCCN(CCCCCCC)CC(O)c1cc2ccc(Cl)cc2nc1-c1ccc(Cl)cc1 (configuration not stated) | 87 % of control

Give one value of T/C per listed compound.
1. CCCCCCCCCC(=O)N/N=C/c1ccccc1O
2. CCOC(=O)c1ccc(NC(=O)Oc2cccc(NC(C)=O)c2)cc1
3. Nc1ccccc1Oc1ccccc1
4. CCN(Cc1ccccc1)C(=O)Nc1ccc(OC)cc1
5. O=[N+]([O-])c1cc2c3ccccc3c(F)cc2c2ccccc12

output:
1. 105 % of control
2. 92 % of control
3. 100 % of control
4. 106 % of control
5. 98 % of control

input: Note T/C for the compound shown: COc1cc(C2N(c3ccccc3)CCN2c2ccccc2)cc(OC)c1OC
output: 94 % of control
